target.of.assay: unrelated Fc-fused recombinant protein
assay.info: ELISA, lysate on plate-bound antigen
# maps each entry to its ELISA Fc Control (RSU)
Numeric answer only, unit RSU assumed.

ISOP121BR5P1E9 (designed binder, not shown: small tags and cut ends, FN3 domain; E. coli lysate in the ELISA) LPAPKNLVVSRVTEDSARLSWDSYRDYFDSFLIQYQESEKVGEAIVLTVPGSERSYDLTGLKPGTEYTVSIYGVYSRKHVVFVQSNPLSAIFTT    960

Prompt: Param item = ISOP121BR5P1D7 (designed binder, not shown: small tags and cut ends, FN3 domain; E. coli lysate in the ELISA) LPAPKNLGCFSRYRRLSRLSWETPYPSLSNFDSFLIQYQESEKVGEAIVLTVPGSERSYDLTGLKPGTEYTVSIYGVLKLSAAWWPSNPLSAIFTT ; retrieve measured ELISA Fc Control (RSU).
Completion: 800

Prompt: Thanks! And ISOP121GR5P1G11 (designed binder, not shown: small tags and cut ends, FN3 domain; E. coli lysate in the ELISA) LPAPKNLVVSRVTEDSARLSWTAPDAAFDSFQINYHEYGQNGEAIQLIVPGSERSYDLTGLKPGTEYGVWIWGVKGGIRSKPLWAFFTT ?
Completion: 960

Prompt: Thanks! And ISOP194BR9P1E4 (designed binder, not shown: small tags and cut ends, FN3 domain; E. coli lysate in the ELISA) LPAPKNLVVSRVTEDSARLSWTTAFHNEYFDSFLIQYQESEKVGEAIVLTVPGSERSYDLTGLKPGTEYTVSIYGVYQRGYHNWFSNPLSAIFTT ?
Completion: 640
